Molecular target: human glutathione transferase-tagged FXR-LBD (Homo sapiens, UniProt Q96RI1)
Construct: human glutathione transferase-tagged FXR-LBD (Life Technologies, USA); purchased Life Technologies, USA
Sequence (Q96RI1 262-486 limits assumed): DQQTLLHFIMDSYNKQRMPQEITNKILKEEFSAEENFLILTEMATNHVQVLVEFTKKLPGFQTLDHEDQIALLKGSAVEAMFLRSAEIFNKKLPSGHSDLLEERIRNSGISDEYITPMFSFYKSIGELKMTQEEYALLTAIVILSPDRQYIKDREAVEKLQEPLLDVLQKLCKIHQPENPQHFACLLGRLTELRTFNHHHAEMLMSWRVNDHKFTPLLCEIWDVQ
Assay: FXR AlphaScreen coactivator recruitment assay (human);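 as to hFXR Efficacy: CDCA at 50 µM taken as 100%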
Assay type: biochemical
Parameters: dose or concentration left out as unconfirmed
Conditions: read-out: hFXR Efficacy
Parameter Measured: Emax (%)
Kindly provide the numeric value in % only, without the unit symbol.

{"Compound": "CC[C@H]1[C@@H](O)[C@@H]2[C@H](CC[C@]3(C)[C@@H]([C@H](C)CCc4nn[nH]n4)[C@@H](O)C[C@@H]23)[C@@]2(C)CC[C@@H](O)C[C@@H]12 [Compound 17]", "Measurement Target": "human glutathione transferase-tagged FXR-LBD (Homo sapiens, UniProt Q96RI1)", "Reading Unit": "%", "Emax": 138}
{"Compound": "CC[C@H]1[C@@H](O)[C@@H]2[C@H](C[C@H](O)[C@]3(C)[C@@H]([C@H](C)C[C@H](O)C(=O)O)CC[C@@H]23)[C@@]2(C)CC[C@@H](O)C[C@@H]12 [Compound 1]", "Measurement Target": "human glutathione transferase-tagged FXR-LBD (Homo sapiens, UniProt Q96RI1)", "Reading Unit": "%", "Emax": 52}
{"Compound": "CC[C@H]1[C@@H](O)C2C3CC[C@H]([C@H](C)CCc4nn[nH]n4)[C@@]3(C)[C@@H](O)CC2[C@@]2(C)CC[C@@H](O)C[C@@H]12 (stereo partly shown) [Compound 12]", "Measurement Target": "human glutathione transferase-tagged FXR-LBD (Homo sapiens, UniProt Q96RI1)", "Reading Unit": "%", "Emax": 125}

Query CC[C@H]1[C@@H](O)[C@@H]2[C@H](C[C@H](O)[C@]3(C)[C@@H]([C@H](C)C[C@@H](O)C(=O)O)CC[C@@H]23)[C@@]2(C)CC[C@@H](O)C[C@@H]12 [Compound 2] yields Emax of 200

The reported value for CC[C@H]1[C@@H](O)C2C3CC[C@H]([C@H](C)CCc4noc(=O)[nH]4)[C@@]3(C)CCC2[C@@]2(C)CC[C@@H](O)C[C@@H]12 (stereo partly shown) [Compound 16] in terms of Emax is 165

Entry CC[C@H]1[C@@H](O)[C@@H]2[C@H](C[C@H](O)[C@]3(C)[C@@H]([C@H](C)C[C@H](CF)C(=O)O)CC[C@@H]23)[C@@]2(C)CC[C@@H](O)C[C@@H]12 [Compound 7] , Emax reported as 83

// Emax value for CC[C@H]1[C@@H](O)[C@@H]2[C@H](CC[C@]3(C)[C@@H]([C@H](C)CCc4nc(=O)o[nH]4)[C@@H](O)C[C@@H]23)[C@@]2(C)CC[C@@H](O)C[C@@H]12 [Compound 18] : 132

Entry under test: CC[C@H]1[C@@H](O)C2C3CC[C@H]([C@H](C)C[C@H](CO)C(=O)O)[C@@]3(C)[C@@H](O)CC2[C@@]2(C)CC[C@@H](O)C[C@@H]12 (stereo partly shown) [Compound 5] . Its Emax was 37

Recorded Emax (compound CC[C@H]1[C@@H](O)[C@@H]2[C@H](C[C@H](O)[C@]3(C)[C@@H]([C@H](C)C[C@@H](F)C(=O)O)CC[C@@H]23)[C@@]2(C)CC[C@@H](O)C[C@@H]12 [Compound 9] ): 147

Sure, the documented Emax for CC[C@@H]1C2C[C@H](O)CC[C@]2(C)C2CC[C@@]3(C)C(CC[C@@H]3[C@H](C)Cc3nn[nH]n3)C2[C@@H]1O (stereo partly shown) [Compound 13] is 138
